Assay: Hydroxyl radical scavenging activity assessed as reduction of DMPO-OH adduct formation using Fenton reaction by ESR spectroscopy
Format: functional
metric.name: Activity

CC1(C)CCc2cc(O)ccc2O1
Dose-dependent effect
CC1(C)CCc2c(cc(Cl)c(O)c2Cl)O1
Dose-dependent effect
CC1(C)CCc2c(Cl)c(O)c(Cl)c(Cl)c2O1
Dose-dependent effect
CC1(C)CCc2c(ccc(O)c2Cl)O1
Dose-dependent effect
CC1(C)CCc2cc(O)cc(Cl)c2O1
Dose-dependent effect

Prompt: Tell me the measured Activity of CC1(C)CCc2cc(O)c(Cl)cc2O1 , please.
Response: Dose-dependent effect

* * *

Provide the recorded pKa for the entries that follow.
Assay: Dissociation constant, pKa of the compound by UV-visible absorption spectroscopy
Format: physicochemical
// no unit, no text: just the number

Prompt: Given the entry CC1(C)CCc2c(cc(Cl)c(O)c2Cl)O1 , report its measured pKa.
Response: 7.7

Prompt: Dear colleague, I am looking for the recorded pKa of the following compound: CC1(C)CCc2cc(O)c(Cl)cc2O1
Response: 9.1

Prompt: For CC1(C)CCc2cc(O)cc(Cl)c2O1 , what is its reported pKa?
Response: 9.8

Prompt: Would you mind telling me what pKa value was observed for CC1(C)CCc2cc(O)ccc2O1 ?
Response: 10.3

Prompt: Which value of pKa has been reported for CC1(C)CCc2c(ccc(O)c2Cl)O1 in the records?
Response: 8.6

Prompt: If you can, please state the reported pKa value of CC1(C)CCc2c(Cl)c(O)c(Cl)c(Cl)c2O1 .
Response: 7.1
